# Target System: GST-Nv-NF-kB (Cys allele) (Nematostella vectensis, UniProt E5G601 2-411)
# Sequence: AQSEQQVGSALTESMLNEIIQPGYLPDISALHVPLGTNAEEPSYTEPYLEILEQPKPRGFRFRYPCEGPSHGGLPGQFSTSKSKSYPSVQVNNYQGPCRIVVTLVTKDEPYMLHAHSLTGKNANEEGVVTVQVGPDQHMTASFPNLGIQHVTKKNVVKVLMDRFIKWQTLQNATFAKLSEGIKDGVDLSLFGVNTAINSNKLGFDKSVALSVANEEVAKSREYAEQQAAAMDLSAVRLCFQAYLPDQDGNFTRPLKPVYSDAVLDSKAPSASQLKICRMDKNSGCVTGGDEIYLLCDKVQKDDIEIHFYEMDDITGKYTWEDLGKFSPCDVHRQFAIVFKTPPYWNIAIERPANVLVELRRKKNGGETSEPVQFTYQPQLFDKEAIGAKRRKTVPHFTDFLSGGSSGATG
# Method Notes: protein-binding microarray (PBM); PBM: ~300 nM protein, 6 mM HEPES pH 7.8, 80 mM KCl, 0.5 mM EDTA, 0.5 mM EGTA, 6% glycerol, 35 ng/ul poly-dIdC, 1% milk, 1 h, room temperature; high values mean tight binding
# Recorded Conditions: dsDNA, one strand shown
Some sequences, each annotated with its measured binding signal.
Observable: binding signal

macromolecule_sequence=CCGATTAACATCACACAATCCCCTGATGTTAATCGGGTCTTGATTCGCTTGACGCTGCTG result="6.65 z-score"
macromolecule_sequence=CCGATTAACATCAAGGGGGGACTTGATGTTAATCGGGTCTTGATTCGCTTGACGCTGCTG result="5.56 z-score"
macromolecule_sequence=CCGATTAACATCAATTCCCAACATGATGTTAATCGGGTCTTGATTCGCTTGACGCTGCTG result="2.32 z-score"
macromolecule_sequence=CCGATTAACATCAAAATACCCCCTGATGTTAATCGGGTCTTGATTCGCTTGACGCTGCTG result="7.56 z-score"
macromolecule_sequence=CCGATTAACATCAAAAACCCCCGTGATGTTAATCGGGTCTTGATTCGCTTGACGCTGCTG result="8.8 z-score"

----------
# key: entry, value: binding signal
# Target System: GST-Co-NF-kB (Capsaspora owczarzaki, UniProt F1ARL5 200-546)
# Sequence: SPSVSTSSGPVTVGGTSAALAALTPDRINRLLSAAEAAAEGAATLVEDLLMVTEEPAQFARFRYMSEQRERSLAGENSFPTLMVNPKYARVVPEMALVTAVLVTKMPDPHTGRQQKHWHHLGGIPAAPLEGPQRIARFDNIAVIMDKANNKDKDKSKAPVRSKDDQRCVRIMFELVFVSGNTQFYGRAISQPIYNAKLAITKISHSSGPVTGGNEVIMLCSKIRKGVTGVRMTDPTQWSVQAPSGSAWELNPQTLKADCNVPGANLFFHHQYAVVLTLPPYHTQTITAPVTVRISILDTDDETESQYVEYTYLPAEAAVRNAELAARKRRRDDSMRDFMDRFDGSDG
# Method Notes: protein-binding microarray (PBM); PBM: ~300 nM protein, 6 mM HEPES pH 7.8, 80 mM KCl, 0.5 mM EDTA, 0.5 mM EGTA, 6% glycerol, 35 ng/ul poly-dIdC, 1% milk, 1 h, room temperature; high values mean tight binding
# Recorded Conditions: dsDNA, one strand shown
Observable: binding signal (z-score)

macromolecule_sequence=CCGATTAACATCAGGGAAAATTATGATGTTAATCGGGTCTTGATTCGCTTGACGCTGCTG observable="binding signal" u=z-score readout_number=6.45
macromolecule_sequence=CCGATTAACATCAGGGGGTCCACTGATGTTAATCGGGTCTTGATTCGCTTGACGCTGCTG observable="binding signal" u=z-score readout_number=1.99
macromolecule_sequence=CCGATTAACATCACCCATTCCCCTGATGTTAATCGGGTCTTGATTCGCTTGACGCTGCTG observable="binding signal" u=z-score readout_number=5.33
macromolecule_sequence=CCGATTAACATCAAGGGAATGCCTGATGTTAATCGGGTCTTGATTCGCTTGACGCTGCTG observable="binding signal" u=z-score readout_number=1.06
macromolecule_sequence=CCGATTAACATCAGTAATCCCCATGATGTTAATCGGGTCTTGATTCGCTTGACGCTGCTG observable="binding signal" u=z-score readout_number=3.87
macromolecule_sequence=CCGATTAACATCAGGGGGAAGCATGATGTTAATCGGGTCTTGATTCGCTTGACGCTGCTG observable="binding signal" u=z-score readout_number=7.73
macromolecule_sequence=CCGATTAACATCAGGGGAGACAATGATGTTAATCGGGTCTTGATTCGCTTGACGCTGCTG observable="binding signal" u=z-score readout_number=4.18
macromolecule_sequence=CCGATTAACATCAGGGGGGGAGATGATGTTAATCGGGTCTTGATTCGCTTGACGCTGCTG observable="binding signal" u=z-score readout_number=8.63
macromolecule_sequence=CCGATTAACATCAGAGATTTCCCTGATGTTAATCGGGTCTTGATTCGCTTGACGCTGCTG observable="binding signal" u=z-score readout_number=3.92
macromolecule_sequence=CCGATTAACATCAACTTCCCCCCTGATGTTAATCGGGTCTTGATTCGCTTGACGCTGCTG observable="binding signal" u=z-score readout_number=9.16
macromolecule_sequence=CCGATTAACATCACATCCCCCCCTGATGTTAATCGGGTCTTGATTCGCTTGACGCTGCTG observable="binding signal" u=z-score readout_number=6.54
macromolecule_sequence=CCGATTAACATCAAGAATTCCCGTGATGTTAATCGGGTCTTGATTCGCTTGACGCTGCTG observable="binding signal" u=z-score readout_number=4.23
macromolecule_sequence=CCGATTAACATCAGGGAAAAAACTGATGTTAATCGGGTCTTGATTCGCTTGACGCTGCTG observable="binding signal" u=z-score readout_number=5.17
macromolecule_sequence=CCGATTAACATCAGGGAAAACTATGATGTTAATCGGGTCTTGATTCGCTTGACGCTGCTG observable="binding signal" u=z-score readout_number=5.67
macromolecule_sequence=CCGATTAACATCAGGGGGTAAAATGATGTTAATCGGGTCTTGATTCGCTTGACGCTGCTG observable="binding signal" u=z-score readout_number=8.57
macromolecule_sequence=CCGATTAACATCAGGGACTCCCATGATGTTAATCGGGTCTTGATTCGCTTGACGCTGCTG observable="binding signal" u=z-score readout_number=1.08
macromolecule_sequence=CCGATTAACATCAAAGTGGGAAATGATGTTAATCGGGTCTTGATTCGCTTGACGCTGCTG observable="binding signal" u=z-score readout_number=2.54
macromolecule_sequence=CCGATTAACATCAAAATACTCCCTGATGTTAATCGGGTCTTGATTCGCTTGACGCTGCTG observable="binding signal" u=z-score readout_number=2.79

----------
# Target System: GST-Ap-NF-kB RHD (Exaiptasia pallida (Aiptasia), UniProt A0A913YAJ5 2-422)
# Sequence: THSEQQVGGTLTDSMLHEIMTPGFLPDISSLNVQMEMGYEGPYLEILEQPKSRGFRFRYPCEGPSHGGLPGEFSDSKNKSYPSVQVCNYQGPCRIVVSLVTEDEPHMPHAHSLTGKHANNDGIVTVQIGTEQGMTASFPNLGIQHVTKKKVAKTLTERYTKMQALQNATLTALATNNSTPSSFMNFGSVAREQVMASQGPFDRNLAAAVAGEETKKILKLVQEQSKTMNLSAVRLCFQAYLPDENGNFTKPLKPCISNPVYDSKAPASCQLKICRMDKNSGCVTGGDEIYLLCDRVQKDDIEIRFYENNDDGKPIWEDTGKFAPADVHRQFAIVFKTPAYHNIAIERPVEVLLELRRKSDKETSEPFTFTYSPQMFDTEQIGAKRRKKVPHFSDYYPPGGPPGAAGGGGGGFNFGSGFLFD
# Method Notes: protein-binding microarray (PBM); PBM: ~300 nM protein, 6 mM HEPES pH 7.8, 80 mM KCl, 0.5 mM EDTA, 0.5 mM EGTA, 6% glycerol, 35 ng/ul poly-dIdC, 1% milk, 1 h, room temperature; Ap Aiptasia and Nv Nematostella (sea anemones) / Co Capsaspora / Aq Amphimedon (sponge) / Dm Drosophila / Hu human; RHD is the Rel homology domain; high values mean tight binding
# Recorded Conditions: dsDNA, one strand shown
Tag: fulfilled if measured binding signal is not below 4 z-score, not fulfilled if it is.

macromolecule_sequence=CCGATTAACATCACCATTTCCCCTGATGTTAATCGGGTCTTGATTCGCTTGACGCTGCTG assigned_category=fulfilled
macromolecule_sequence=CCGATTAACATCAGGAATGTCCCTGATGTTAATCGGGTCTTGATTCGCTTGACGCTGCTG assigned_category="not fulfilled"
macromolecule_sequence=CCGATTAACATCAAAAAAAACCCTGATGTTAATCGGGTCTTGATTCGCTTGACGCTGCTG assigned_category=fulfilled
macromolecule_sequence=CCGATTAACATCACGGATTTCCCTGATGTTAATCGGGTCTTGATTCGCTTGACGCTGCTG assigned_category="not fulfilled"
macromolecule_sequence=CCGATTAACATCAGGGGCATACCTGATGTTAATCGGGTCTTGATTCGCTTGACGCTGCTG assigned_category="not fulfilled"
macromolecule_sequence=CCGATTAACATCACGGGGGGGAATGATGTTAATCGGGTCTTGATTCGCTTGACGCTGCTG assigned_category=fulfilled
macromolecule_sequence=CCGATTAACATCAAGGGGGGGTGTGATGTTAATCGGGTCTTGATTCGCTTGACGCTGCTG assigned_category=fulfilled
macromolecule_sequence=CCGATTAACATCAGGGACAGCCCTGATGTTAATCGGGTCTTGATTCGCTTGACGCTGCTG assigned_category="not fulfilled"
macromolecule_sequence=CCGATTAACATCAGGGGGATGCATGATGTTAATCGGGTCTTGATTCGCTTGACGCTGCTG assigned_category=fulfilled
macromolecule_sequence=CCGATTAACATCAGGGGATGAACTGATGTTAATCGGGTCTTGATTCGCTTGACGCTGCTG assigned_category="not fulfilled"
macromolecule_sequence=CCGATTAACATCACGTTTCCCCCTGATGTTAATCGGGTCTTGATTCGCTTGACGCTGCTG assigned_category=fulfilled
macromolecule_sequence=CCGATTAACATCAGATTTCCCCCTGATGTTAATCGGGTCTTGATTCGCTTGACGCTGCTG assigned_category=fulfilled
macromolecule_sequence=CCGATTAACATCAGGGGAACTACTGATGTTAATCGGGTCTTGATTCGCTTGACGCTGCTG assigned_category=fulfilled
macromolecule_sequence=CCGATTAACATCAAGGGGGGAGATGATGTTAATCGGGTCTTGATTCGCTTGACGCTGCTG assigned_category=fulfilled
macromolecule_sequence=CCGATTAACATCAAAAACTCCCATGATGTTAATCGGGTCTTGATTCGCTTGACGCTGCTG assigned_category=fulfilled
macromolecule_sequence=CCGATTAACATCAGATTCCCCCCTGATGTTAATCGGGTCTTGATTCGCTTGACGCTGCTG assigned_category=fulfilled
macromolecule_sequence=CCGATTAACATCACAGAAACCCCTGATGTTAATCGGGTCTTGATTCGCTTGACGCTGCTG assigned_category=fulfilled
macromolecule_sequence=CCGATTAACATCAAGGGCTTCCCTGATGTTAATCGGGTCTTGATTCGCTTGACGCTGCTG assigned_category="not fulfilled"
macromolecule_sequence=CCGATTAACATCAGGAAATTACCTGATGTTAATCGGGTCTTGATTCGCTTGACGCTGCTG assigned_category="not fulfilled"
macromolecule_sequence=CCGATTAACATCAGAGTGGGAAATGATGTTAATCGGGTCTTGATTCGCTTGACGCTGCTG assigned_category="not fulfilled"
macromolecule_sequence=CCGATTAACATCAGAATTACCCATGATGTTAATCGGGTCTTGATTCGCTTGACGCTGCTG assigned_category="not fulfilled"
macromolecule_sequence=CCGATTAACATCAGGGCGCCCCCTGATGTTAATCGGGTCTTGATTCGCTTGACGCTGCTG assigned_category=fulfilled
macromolecule_sequence=CCGATTAACATCAAAAAATCCCATGATGTTAATCGGGTCTTGATTCGCTTGACGCTGCTG assigned_category=fulfilled
macromolecule_sequence=CCGATTAACATCAAGGGGGATTATGATGTTAATCGGGTCTTGATTCGCTTGACGCTGCTG assigned_category=fulfilled
macromolecule_sequence=CCGATTAACATCAGACTTTTCCCTGATGTTAATCGGGTCTTGATTCGCTTGACGCTGCTG assigned_category="not fulfilled"
macromolecule_sequence=CCGATTAACATCACTAAACCCCCTGATGTTAATCGGGTCTTGATTCGCTTGACGCTGCTG assigned_category=fulfilled
macromolecule_sequence=CCGATTAACATCAGGGGTTCCACTGATGTTAATCGGGTCTTGATTCGCTTGACGCTGCTG assigned_category="not fulfilled"
macromolecule_sequence=CCGATTAACATCAGGGGATGAATTGATGTTAATCGGGTCTTGATTCGCTTGACGCTGCTG assigned_category="not fulfilled"
macromolecule_sequence=CCGATTAACATCAAGATTTTCCCTGATGTTAATCGGGTCTTGATTCGCTTGACGCTGCTG assigned_category=fulfilled
macromolecule_sequence=CCGATTAACATCAGGACTACCCCTGATGTTAATCGGGTCTTGATTCGCTTGACGCTGCTG assigned_category="not fulfilled"
macromolecule_sequence=CCGATTAACATCAATTTTTCCCATGATGTTAATCGGGTCTTGATTCGCTTGACGCTGCTG assigned_category="not fulfilled"
macromolecule_sequence=CCGATTAACATCACGGAAACCCCTGATGTTAATCGGGTCTTGATTCGCTTGACGCTGCTG assigned_category=fulfilled
macromolecule_sequence=CCGATTAACATCAAACTTCCCCCTGATGTTAATCGGGTCTTGATTCGCTTGACGCTGCTG assigned_category=fulfilled
macromolecule_sequence=CCGATTAACATCACAAAAATCCCTGATGTTAATCGGGTCTTGATTCGCTTGACGCTGCTG assigned_category=fulfilled
macromolecule_sequence=CCGATTAACATCACCCCATCCCCTGATGTTAATCGGGTCTTGATTCGCTTGACGCTGCTG assigned_category=fulfilled
macromolecule_sequence=CCGATTAACATCACTGGGAAAACTGATGTTAATCGGGTCTTGATTCGCTTGACGCTGCTG assigned_category="not fulfilled"
